experiment: Cytotoxicity against human monocytes assessed as depletion of cellular LDH activity; type: cell-based; design: concentration or dose not given beside the values; conditions: monocyte
quantity name: Activity

>  <compound>
O=c1c(O)c(-c2ccc(O)c(O)c2)oc2cc(O)ccc12

>  <quantity name>
Activity

>  <result>
Non-toxic

$$$$
>  <compound>
O=c1cc(-c2ccccc2)oc2cc(O)c(O)c(O)c12

>  <quantity name>
Activity

>  <result>
Non-toxic

$$$$
>  <compound>
COc1cc(O)c2c(=O)c(O)c(-c3ccc(O)c(O)c3)oc2c1

>  <quantity name>
Activity

>  <result>
> 20%

$$$$
>  <compound>
O=C1CC(c2ccccc2)Oc2ccccc21 (stereo unspecified)

>  <quantity name>
Activity

>  <result>
Non-toxic

$$$$
>  <compound>
C[C@@H]1O[C@@H](OC[C@H]2O[C@@H](Oc3c(-c4ccc(O)cc4)oc4cc(O[C@@H]5O[C@@H](C)[C@H](O)[C@@H](O)[C@H]5O)cc(O)c4c3=O)[C@H](O)[C@@H](O)[C@@H]2O)[C@H](O)[C@H](O)[C@H]1O

>  <quantity name>
Activity

>  <result>
Non-toxic

$$$$
>  <compound>
COc1ccc(-c2cc(=O)c3c(O)cc(O)cc3o2)cc1

>  <quantity name>
Activity

>  <result>
> 20%

$$$$
>  <compound>
O=c1cc(-c2ccc(O)cc2)oc2cc(O)cc(O)c12

>  <quantity name>
Activity

>  <result>
> 20%

$$$$
>  <compound>
COc1ccc([C@@H]2CC(=O)c3c(O)cc(O[C@@H]4O[C@H](CO[C@@H]5O[C@@H](C)[C@H](O)[C@@H](O)[C@H]5O)[C@@H](O)[C@H](O)[C@H]4O)cc3O2)cc1O

>  <quantity name>
Activity

>  <result>
Non-toxic

$$$$
>  <compound>
O=c1c(O)c(-c2ccc(O)cc2)oc2cc(O)cc(O)c12

>  <quantity name>
Activity

>  <result>
> 20%

$$$$
>  <compound>
O=c1c(O)c(-c2ccc(O)c(O)c2)oc2c(O)c(O)cc(O)c12

>  <quantity name>
Activity

>  <result>
Non-toxic

$$$$
>  <compound>
O=c1c(O)c(-c2ccc(O)c(O)c2)oc2cc(O)cc(O)c12

>  <quantity name>
Activity

>  <result>
> 20%

$$$$
>  <compound>
COc1ccc(-c2cc(=O)c3c(O)cc(O[C@@H]4O[C@H](CO[C@@H]5O[C@@H](C)[C@H](O)[C@@H](O)[C@H]5O)[C@@H](O)[C@H](O)[C@H]4O)cc3o2)cc1O

>  <quantity name>
Activity

>  <result>
Non-toxic

$$$$
>  <compound>
C[C@@H]1O[C@@H](O[C@H]2[C@H](Oc3cc(O)c4c(c3)O[C@H](c3ccc(O)cc3)CC4=O)O[C@H](CO)[C@@H](O)[C@@H]2O)[C@H](O)[C@H](O)[C@H]1O

>  <quantity name>
Activity

>  <result>
Non-toxic

$$$$
>  <compound>
O=c1c(O)c(-c2ccccc2)oc2cc(O)cc(O)c12

>  <quantity name>
Activity

>  <result>
Non-toxic

$$$$
>  <compound>
Oc1cc(O)c2c(c1)O[C@H](c1ccc(O)c(O)c1)[C@@H](O)C2

>  <quantity name>
Activity

>  <result>
Non-toxic

$$$$
>  <compound>
O=c1cc(-c2ccccc2)oc2cc(O)cc(O)c12

>  <quantity name>
Activity

>  <result>
Non-toxic

$$$$
